# METHOD: Cell Viability - LYMP2-018 (AID 985);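 note: compound exposure lasted 24 hr at 37 °C; nearly all actives have a fitted effect of over 50% in size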
# PARTICULARS: LYMP2-018 lymphoblastoid cells, viability (qHTS); series mostly up to 92.2 µM
Records with an inconclusive call do not appear. The source made the active and inactive calls. Calls come from the whole dose curve; as a rule, active = well fitted cell-killing curve with a large enough effect; inconclusive = small, poorly fitted or top-dose-only effect; inactive = flat fitted curve, though single readings scatter.
Outcome codes: Yes (active), No (inactive)

COMPOUND | ASSIGNED_LABEL
Nc1ccc(N=Nc2ccccc2)c(N)n1 | No
CC1=CCC2CC1C2(C)C (configuration not stated) | No
CO/N=C(/C(=O)N[C@@H]1C(=O)N2C(C(=O)O)=C(COC(N)=O)CS[C@H]12)c1ccco1 | No
COC(=O)c1ccccc1O | No
[O-][N+](=Nc1ccccc1)c1ccccc1 | No
O=P(O)(O)O | No
Oc1cccc(O)c1O | No
C[C@H]1O[C@@H](O[C@H]2[C@@H](O)C[C@H](O[C@H]3[C@@H](O)C[C@H](O[C@H]4CC[C@@]5(C)[C@H](CC[C@@H]6[C@@H]5C[C@@H](O)[C@]5(C)[C@@H](C7=CC(=O)OC7)CC[C@]65O)C4)O[C@@H]3C)O[C@@H]2C)C[C@H](O)[C@@H]1O | Yes
Nc1ncnc2c1ncn2[C@H]1CC[C@@H](CO)O1 | No
CC[C@H]1OC(=O)[C@H](C)[C@@H](O[C@H]2C[C@@](C)(OC)[C@@H](O)[C@H](C)O2)[C@H](C)[C@@H](O[C@@H]2O[C@H](C)C[C@H](N(C)C)[C@H]2O)[C@](C)(O)C[C@@H](C)CN(C)[C@H](C)[C@@H](O)[C@]1(C)O | No
Cc1ncc[nH]1 | No
c1ccc2ccccc2c1 | No

Entry source: PubChem BioAssay (NCATS)
